// data source = patent US20250250357A1

Measured pEC50 of individual entries
Target: T1, human MSLN-R3 on HEK293T-hMSLN-R3 recombinant cells (human, UniProt Q13421 487-606)
T1 construct: the C-terminal limit is uncertain; also called human MSLN-R3 membrane protein
T1 sequence (Q13421 495-614): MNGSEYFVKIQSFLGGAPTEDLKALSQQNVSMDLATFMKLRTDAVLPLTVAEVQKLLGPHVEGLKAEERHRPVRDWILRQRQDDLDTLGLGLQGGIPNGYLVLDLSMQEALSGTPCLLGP
Experiment: FACS, HEK293T-hMSLN-R3 cells
pEC50: −log10 of the molar value.
REPORTED PROPERTY: pEC50

[[record]]
binder = "F3.80.22-H10 (scFv, not shown: small tags and cut ends, also called S009-F3.80.22 humanized antibody VL2 + VH2) scFv: DIVMTQTPLSLPVTPGEPASISCRSSQSLEHNNGNTYLHWFLHKPGQSPQLLIYKVSNRFSGVPDRFSGSGSGTDFTLKISRVEAEDVGVYYCSQSTHVPFTFGQGTKLEIKGGGGSGGGGSGGGGSEVQLVQSGAEVKKPGATVKISCKASGYTFTDYEIHWVQQAPGKGLEWMGAFDPEIGGSAYNQKFKDRVTITADKSTSTAYMELSSLRSEDTAVYYCTDYYGSSSGYFDVWGQGTTVTVSS"
reported_property = "pEC50"
val = 8.70

[[record]]
binder = "F3.80.22-H5 (scFv, not shown: small tags and cut ends, also called S009-F3.80.22 humanized antibody VL1a + VH1) scFv: DIVMTQTPLSLPVTPGEPASISCRSSQSLEHNDGNTYLHWFLQKPGQSPQLLIYKVSNRFSGVPDRFSGSGSGTDFTLKISRVEAEDVGVYYCSQSTHVPFTFGQGTKLEIKGGGGSGGGGSGGGGSEVQLVQSGAEVKKPGATVKISCKVSGYTFTDYEIHWVQQAPGKGLEWMGAFDPEIGGSAYNQKFKDRVTITADKSTDTAYMELSSLRSEDTAVYYCTDYYGSSSGYFDVWGQGTTVTVSS"
reported_property = "pEC50"
val = 8.28

[[record]]
binder = "F3.80.22-H8 (scFv, not shown: small tags and cut ends, also called S009-F3.80.22 humanized antibody VL1a + VH4) scFv: DIVMTQTPLSLPVTPGEPASISCRSSQSLEHNDGNTYLHWFLQKPGQSPQLLIYKVSNRFSGVPDRFSGSGSGTDFTLKISRVEAEDVGVYYCSQSTHVPFTFGQGTKLEIKGGGGSGGGGSGGGGSEVQLVQSGAEVKKPGATVKISCKASGYTFTDYEIHWVQQAPGKGLEWMGAFDPEIGGSAYNQKFKDRVTITADKSSSTAYMELSSLRSEDTAVYYCTDYYGSSSGYFDVWGTGTTVTVSS"
reported_property = "pEC50"
val = 7.99

[[record]]
binder = "Tab111 (scFv, not shown: small tags and cut ends, also called YP218 VL-(G4S)3-VH-his antibody; positive control) scFv: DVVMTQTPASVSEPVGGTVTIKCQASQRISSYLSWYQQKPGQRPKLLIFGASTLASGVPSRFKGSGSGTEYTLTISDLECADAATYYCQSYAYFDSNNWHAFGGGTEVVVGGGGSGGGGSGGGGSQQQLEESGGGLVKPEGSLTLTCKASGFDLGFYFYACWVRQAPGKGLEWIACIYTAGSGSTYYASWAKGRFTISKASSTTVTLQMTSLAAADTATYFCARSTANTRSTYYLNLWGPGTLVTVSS"
reported_property = "pEC50"
val = 8.80

[[record]]
binder = "F3.80.22-H1 (scFv, not shown: small tags and cut ends, also called S009-F3.80.22 humanized antibody VL1 + VH1) scFv: DIVMTQTPLSLPVTPGEPASISCRSSQSLEHNNGNTYLHWFLQKPGQSPQLLIYKVSNRFSGVPDRFSGSGSGTDFTLKISRVEAEDVGVYYCSQSTHVPFTFGQGTKLEIKGGGGSGGGGSGGGGSEVQLVQSGAEVKKPGATVKISCKVSGYTFTDYEIHWVQQAPGKGLEWMGAFDPEIGGSAYNQKFKDRVTITADKSTDTAYMELSSLRSEDTAVYYCTDYYGSSSGYFDVWGQGTTVTVSS"
reported_property = "pEC50"
val = 8.67

[[record]]
binder = "F3.80.22-H2 (scFv, not shown: small tags and cut ends, also called S009-F3.80.22 humanized antibody VL1 + VH2) scFv: DIVMTQTPLSLPVTPGEPASISCRSSQSLEHNNGNTYLHWFLQKPGQSPQLLIYKVSNRFSGVPDRFSGSGSGTDFTLKISRVEAEDVGVYYCSQSTHVPFTFGQGTKLEIKGGGGSGGGGSGGGGSEVQLVQSGAEVKKPGATVKISCKASGYTFTDYEIHWVQQAPGKGLEWMGAFDPEIGGSAYNQKFKDRVTITADKSTSTAYMELSSLRSEDTAVYYCTDYYGSSSGYFDVWGQGTTVTVSS"
reported_property = "pEC50"
val = 9.17

